- subject.of.test: T1, C-terminal His-tagged human DLL4 (amino acid 1-404) (human, UniProt Q9NR61 26-404)
- T1 construct: range 26-404; the text calls it human DLL4-His; also called DLL4-His; human DLL4-His; not shown: C-terminal His tag
- test.method.notes: SPR BIAcore-3000, antibody coupled to CM5 chip, DLL4-His injected, 25 C
measured.endpoint: pKd
Please keep in mind that pKd is minus log10 of the molar concentration; only the number is needed.

Sample YW26 (antibody, V domains shown, Only the six HVRs are tied to the clone; also called clone 152.26; anti-DLL4 antibody) VH: EVQLVESGGGLVQPGGSLRLSCAASGFTFTDNWISWVRQAPGKGLEWVGVINPNSGSTDYADSVKGRFTISADTSKNTAYLQMNSLRAEDTAVYYCARDNFGGYFDYWGQGTLVTVSS VL: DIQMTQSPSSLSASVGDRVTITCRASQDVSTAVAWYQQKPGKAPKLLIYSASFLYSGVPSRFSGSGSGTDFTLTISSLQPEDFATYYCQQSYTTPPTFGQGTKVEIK — what was its pKd?
7.60

Given the binder YW26.14 (antibody, V domains shown, also called clone 152.26.14) VH: EVQLVESGGGLVQPGGSLRLSCAASGFSFRDNWISWVRQAPGKGLEWVGVINPNSGSTDYADSVKGRFTISADTSKNTAYLQMNSLRAEDTAVYYCARDNFGGYFDYWGQGTLVTVSS VL: DIQMTQSPSSLSASVGDRVTITCRASQDVSTAVAWYQQKPGKAPKLLIYSASFLYSGVPSRFSGSGSGTDFTLTISSLQPEDFATYYCQQSVNGPATFGQGTKVEIK , what is its reported pKd?
9.43

Report pKd for YW26.34 (antibody, V domains shown, Only the six HVRs are tied to the clone; also called clone 152.26.34) VH: EVQLVESGGGLVQPGGSLRLSCAASGFTFTDNWISWVRQAPGKGLEWVGLINPTSGSTIYADSVKGRFTISADTSKNTAYLQMNSLRAEDTAVYYCARDNFGGYFDYWGQGTLVTVSS VL: DIQMTQSPSSLSASVGDRVTITCRASQDVSTAVAWYQQKPGKAPKLLIYSASFLYSGVPSRFSGSGSGTDFTLTISSLQPEDFATYYCQQSYTGPSTFGQGTKVEIK please.
9.46

Endpoint output: pKd of YW26.6 (antibody, V domains shown, Only the six HVRs are tied to the clone; also called clone 152.26.6) VH: EVQLVESGGGLVQPGGSLRLSCAASGFTFTDNWISWVRQAPGKGLEWVGLINPQSGSSDYADSVKGRFTISADTSKNTAYLQMNSLRAEDTAVYYCARDNFGGYFDYWGQGTLVTVSS VL: DIQMTQSPSSLSASVGDRVTITCRASQDVSTAVAWYQQKPGKAPKLLIYSASFLYSGVPSRFSGSGSGTDFTLTISSLQPEDFATYYCQQSYTGQSTFGQGTKVEIK . Value?
9.60

Attribution: patent US20080175847A1
